system tested: T1, AFP158/HLA-A*02:01 complex (human)
T1 construct: flowed as analyte in SPR
assay name: SPR, crude scFv captured, pMHC analyte;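 also: complex injected at several concentrations over the chip, association phase then running buffer for dissociation, KD derived from on- and off-rates computed from both curves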
result type: kon
Write your answer as a measured quantity: the number, then the unit.

Look at this binder and give its reported kon. AS170036 VL1VH1-56Y98F108A (scFv, also called 40-AS170036 VL1VH1-56Y98F108A) scFv: QSALTQPRSVSGSPGQSVTISCAGTSSDVGSENYVSWYQQHPGKAPKLMIYQVNKRASGVPDRFSGSKSGNTASLTISGLQAEDEADYYCASYRSSDFNIVFGGGTKLTVLGGGGSGGGGSGGGGSEVQLVESGGGLVQPGGSLRLSCAASGFTFSSYAMSWVRQAPGKGLEWVSTINSGTYSPYYADSVKGRFTISRDNSKNTLYLQMNSLRAEDTAVYYCAKNFFDGSWFLAPPAMDYWGQGTLVTVSSHHHHHH
240000 M⁻¹ s⁻¹
